B1: ZNF449 (parent)
chain: FQEYDTDCEVFRQRFRQFQYREAA

Variants of: B1
METHOD_DESCRIPTION: protein stability index of a GFP-peptide fusion (GPS, HEK-293T) (PSI 1-6); higher = more stable;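 also: lentivirally expressed fusions sorted by FACS into six bins by GFP to DsRed ratio, PSI derived from sequencing read proportions per bin multiplied by bin number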
TEST_PARAMETERS: c terminus: a fixed tail appended

| SEQUENCE_CODE | protein stability index |
| --- | --- |
| FQEYRTDCEVFRQRFRQFQYREAA [D5R] | 1.79 |
| FQEYDTDCEVIRQRFRQFQYREAA [F11I] | 2.72 |
| FQEYDTDCEVFRQRFREFQYREAA [Q17E] | 2.85 |
| FQEYDTDCEAFRQRFRQFQYREAA [V10A] | 2.2 |
| FQEYDTDCEVFRQTFRQFQYREAA [R14T] | 2.75 |
| FQEYDTDAEVFRQRFRQFQYREAA [C8A] | 2.76 |
| FQEYDTDCEVFRQRFRQFQYREAE [A24E] | 2.95 |
| FQEYDTDCEVFRARFRQFQYREAA [Q13A] | 2.72 |
| MQEYDTDCEVFRQRFRQFQYREAA [F1M] | 3.03 |
| FQECDTDCEVFRQRFRQFQYREAA [Y4C] | 3.01 |
| FQEYDTDCEVFRQRFRQHQYREAA [F18H] | 2.4 |
| FQEYDTICEVFRQRFRQFQYREAA [D7I] | 2.25 |
| FQEYDTDCEVFRQRFRQFQYREAF [A24F] | 2.13 |
| FQEYDTDCEVFRQRFRQFQYRIAA [E22I] | 1.99 |
| FQEYDTDCEVPRQRFRQFQYREAA [F11P] | 3.33 |
| FQENDTDCEVFRQRFRQFQYREAA [Y4N] | 2.33 |
| FQEYDTDCEVFRQRFRQFQYREYA [A23Y] | 1.95 |
| FQEYDTDCEVFRQRFRQFQSREAA [Y20S] | 3.15 |
| FQEYDGDCEVFRQRFRQFQYREAA [T6G] | 1.92 |
| FQEYDTDCEVFRQRFRWFQYREAA [Q17W] | 2.17 |
| FQEYDTDCEVFRQRFVQFQYREAA [R16V] | 2.44 |
| FQEYDTDCEVLRQRFRQFQYREAA [F11L] | 2.54 |
| FQEYDTDCEVFRQRFRQFQYREAV [A24V] | 2.13 |
| FQEYDADCEVFRQRFRQFQYREAA [T6A] | 2.58 |
| FQIYDTDCEVFRQRFRQFQYREAA [E3I] | 1.91 |
| FQEYDTDCEVFRQRFRQFQNREAA [Y20N] | 3.48 |
| SQEYDTDCEVFRQRFRQFQYREAA [F1S] | 2.85 |
| FQEYDTDCEVFRQRFRQFQYRERA [A23R] | 2.97 |
| FQEYDSDCEVFRQRFRQFQYREAA [T6S] | 1.73 |
| FQEYDTDCEVFRQRFRQFQYSEAA [R21S] | 2.77 |
| FQEYDPDCEVFRQRFRQFQYREAA [T6P] | 2.77 |
| FQEYDTDCEVFRQDFRQFQYREAA [R14D] | 2.17 |
| FQEYDTDCEYFRQRFRQFQYREAA [V10Y] | 2.62 |
| FQEYDTDCEVFRQRFRQFQDREAA [Y20D] | 3.49 |
| FQEYDTDREVFRQRFRQFQYREAA [C8R] | 2.32 |
| HQEYDTDCEVFRQRFRQFQYREAA [F1H] | 3.24 |
| FQEYDTDCEVFIQRFRQFQYREAA [R12I] | 2.14 |
| FQEYDTDCEVFRQRFGQFQYREAA [R16G] | 2.44 |
| FQEYDTDCEVFRQRFRQFEYREAA [Q19E] | 2.35 |
| FQEYDTDCEVFTQRFRQFQYREAA [R12T] | 2.41 |
| FQEYDTDCEVFRQRFRQFQYREVA [A23V] | 2.15 |
| FQEIDTDCEVFRQRFRQFQYREAA [Y4I] | 2.42 |
| FQEYDTDCEVTRQRFRQFQYREAA [F11T] | 3.15 |
| FGEYDTDCEVFRQRFRQFQYREAA [Q2G] | 2.59 |
| FQEEDTDCEVFRQRFRQFQYREAA [Y4E] | 3.79 |
| FQEYDTDCEVFRQRFRQFQYRLAA [E22L] | 2.22 |
| FQEYDTACEVFRQRFRQFQYREAA [D7A] | 1.53 |
| FQEYDTDCEVFRQRFRHFQYREAA [Q17H] | 2.44 |
| FQEYDTDCEVFRQMFRQFQYREAA [R14M] | 3.51 |
| FQEYDTDCEVFRQRFRQFQYRHAA [E22H] | 2.36 |
| FQEYDTDVEVFRQRFRQFQYREAA [C8V] | 2.74 |
| FVEYDTDCEVFRQRFRQFQYREAA [Q2V] | 1.68 |
| FQEYDTDCEVFRQRFFQFQYREAA [R16F] | 2.44 |
| FQEYDTDCEVFRQRFRQFQGREAA [Y20G] | 3.31 |
| FQEYDTDCEVFRQYFRQFQYREAA [R14Y] | 2.35 |
| FQEYDTDCEVFRQRFRQNQYREAA [F18N] | 2.38 |
| FQEYDTVCEVFRQRFRQFQYREAA [D7V] | 1.34 |
| FQEYDTDCEVFRQRFRQFQYGEAA [R21G] | 3.14 |
| FQEYDQDCEVFRQRFRQFQYREAA [T6Q] | 2.65 |
| FQEYDTDCEVFRQRFRQFYYREAA [Q19Y] | 2.22 |
| FQEYWTDCEVFRQRFRQFQYREAA [D5W] | 1.29 |
| FQEYDTDCEVFRQRFAQFQYREAA [R16A] | 2.51 |
| FQEYDTDCEWFRQRFRQFQYREAA [V10W] | 2.13 |
| FQEYDTDCEVFRQRFRQFQYVEAA [R21V] | 2.51 |
| FQEYDTDCEVFRQRFRTFQYREAA [Q17T] | 2.51 |
| FQEYDTDCEVFRQRFRDFQYREAA [Q17D] | 3.13 |
| FQEYDTDCEVFRDRFRQFQYREAA [Q13D] | 2.6 |
| FQEYATDCEVFRQRFRQFQYREAA [D5A] | 2.25 |
| FQEYDTDCEVFRQRFRQFQYEEAA [R21E] | 3.16 |
| FQEYDTDCEVFMQRFRQFQYREAA [R12M] | 2.24 |
| FQEDDTDCEVFRQRFRQFQYREAA [Y4D] | 3.03 |
| FQEYDTDCEGFRQRFRQFQYREAA [V10G] | 2.9 |
| FQEYDTDCEVFRRRFRQFQYREAA [Q13R] | 2.04 |
| FQEYDTDCEVFRQRFRQFQMREAA [Y20M] | 3.03 |
| FQEYDTDCEVFRQRFRQFVYREAA [Q19V] | 2.48 |
| FQEYDTDCEVFNQRFRQFQYREAA [R12N] | 2.27 |
| FQEYDTDCEVFRQRFRQFQYNEAA [R21N] | 2.62 |
| FQEYDTDCEVFRQRWRQFQYREAA [F15W] | 2.62 |
| FQEYDTDCEVFRQRFRQFQYREMA [A23M] | 2.43 |
| FQEYDTDCEVFRQRFMQFQYREAA [R16M] | 3.38 |
| FQEYDTDCEVFRQRFRQFKYREAA [Q19K] | 2.44 |
| FQEYDTDCEVFRQWFRQFQYREAA [R14W] | 2.36 |
| FQEYDTDCEVFRQRFRQFQYRENA [A23N] | 2.7 |
| FQEYDTDCEVFRPRFRQFQYREAA [Q13P] | 1.03 |
| FQEYDTDCEVFRQRFRQFQYREAR [A24R] | 3.04 |
| FQEYDTDCEVFRQRFRQFQYREAL [A24L] | 2.64 |
| FQEYDVDCEVFRQRFRQFQYREAA [T6V] | 2.22 |
| FQEYDTDCPVFRQRFRQFQYREAA [E9P] | 2.46 |
| FQEYDTDCEVFRNRFRQFQYREAA [Q13N] | 2.58 |
| NQEYDTDCEVFRQRFRQFQYREAA [F1N] | 3.23 |
| FQEYDTDCEVFRQRLRQFQYREAA [F15L] | 2.42 |
